Taken from the supplement of paper PMC6555819.

- Tested on: LXRa homodimer (NR concentration 270 nM)
- Assay Protocol: PBM binding z-score (relative to random genomic background probes); higher = stronger binding; sequences stand for … in GC…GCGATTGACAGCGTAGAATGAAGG
Mark criterion met for reported PBM binding z-score of 0.3 or greater; mark criterion not met for anything smaller.

1) CCGACAGGGGCAAAGGTTACCATACTCAGTACGA	criterion not met
2) CCTTGTTGGTCAGGAGGTCACACACCGGATATGA	criterion met
3) CCTTACGGGTCTCTGACAGGTTATAGCATTTGGA	criterion not met
4) ATCGAAAGGTCGTGGGGTGAGTATACAGAAAGGC	criterion met
5) CGAACTAGGTCAGAACAGGACAGTCAAGGATGAT	criterion not met
6) TAGCCTAGGTCAGATCGGACCAGTATACGCTATA	criterion not met
7) GCTTTCGGGTCAAAGGTTATAGCATGAATAGAAT	criterion met
8) CGTCCCAGGTCAATGCTAGGTCAGTGAAAGCATT	criterion met
9) TATACAGGGTCAACGGCCAGAGTACGAATGTCGA	criterion met
10) ACTTACGGGTCAACGAGGTTATAGTACGCGTATA	criterion met
11) TCGAGTAGGTTGCCAATGGGGCATTCAGCTTTCT	criterion not met
12) GCTGCTAGGTCAACTGATGTTCAGCTAAAGCTCG	criterion not met
13) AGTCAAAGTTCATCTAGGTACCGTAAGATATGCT	criterion met
14) ACTACTAGTTGACTTAGGGCAACCGATACGACGC	criterion not met
15) GCTTACGGGTCATAGGTTATAGCATGAATAGAAT	criterion met
16) ACTATTAGTTGACTTAGGGCAACGGATACGACGC	criterion not met
17) TCATATAGGTAAATGCTAGGTGAAAGTCCGATCT	criterion not met
18) CGTCCAATGTCAAGGTCAGTGAAAGAGACTCGAA	criterion met
19) GCAGACAGGTGAAACGCAGCTAACTCAGGGTGGC	criterion not met
20) GTACCAAGCTGAATAGGTCGTTGATGAGTAGGCG	criterion not met
21) CCTAGTTGGTCAAGGTCACACAAGCTATAGGTAC	criterion met
22) TCTAGTTGGTCAAACGTCACACACTCGAAATGCG	criterion met
23) CGTCCAAGGTCACTGCTAGGTCAGTGAAAGCATT	criterion met
24) ATCTGTAGGTTAAGGGTCATTCAGGTTGGTTCGC	criterion met
25) TCGAGCAGGCCAGAGGGTCACTCAAGAGGTACGG	criterion not met
26) AATACAGGGTCATCGCAGGCCAGAGTACGCACAG	criterion met
27) GCTGTTAGGTCAACTGATGGTCAGCTAAAGCTCG	criterion met
28) CCTTACGGGTCACTCCAGATTATAGCATCGGAGT	criterion not met
29) AGAATGAGGTTATGAAGATCAGGGAATTGCGGTC	criterion not met
30) ACTATTAGTTAAGACGAGGGCAACCGATAGGTTG	criterion not met
31) AGAACGAGCGCAATGAGTTGATAGCACGGGTGGC	criterion not met
32) TCATATAGGTCAATGCTAGGTGAAAGTCCGATCT	criterion met
33) CGAACGCGGGCATGAGTTGATAGCAAATGCCGAT	criterion not met
34) CCTACTGCGCCACGAAAGGTCATTGATTCAGTGA	criterion met
35) CGTCCAAGGTGAGCAGGTCAGTGAAAGCGACGTG	criterion not met
36) ACTAGCAGGCCAAGTCTGGGTCACTCAAACAAAG	criterion not met
37) ATTCAAAGTTCACTAGGTAACGTAAGATTCAGCT	criterion met
38) CAAACTAGGTCAAGAGGTCAAAGTCCGCTTCCCG	criterion met
39) CCTAGCAGGCCAATCAGGGTCACTCAAGGCTTGA	criterion not met
40) AGAACGAGGACAATGAGTTGATAGCACGGGTGGC	criterion not met
41) AGAATCAGGTTATACGTAGATCAGGGAAGAAAGT	criterion met
42) GCATACAGGTGAAACGCAGGTAACTCAGGGTGGC	criterion not met
43) GCTTATGGGTCAAAGGTTATAGCATGAATAGAAT	criterion met
44) GTCCCAAGGTGAATAGGTCGTTGATGAGTAGGCG	criterion not met
45) ATACGAAGGTGATCGTGAGGTCGTTGATACTAAC	criterion not met
46) GCTAGCTGGCCATTTGGGTCACTCAATGACGGGC	criterion not met
47) ATCGAAAGGGCGACGAGGTGAGTATACACCGTTT	criterion not met
48) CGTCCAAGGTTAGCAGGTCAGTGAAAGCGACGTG	criterion not met
49) GCTGCTAGGTCAGGGTGGTCAGCTAACGGGTACG	criterion not met
50) CGAACTAGGTCAGAACAGGACAGTGATGGATGAT	criterion not met
